# test_system: T1, 4H3606-AA
# T1 chain: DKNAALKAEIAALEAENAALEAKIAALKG
# assay_details: two-hybrid library CCmax;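 note: natural log of median RNA to DNA barcode read ratio; higher means stronger binding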
# test_conditions: mean of both orientations
property_measured: interaction score

binder	property_measured	numeric_value
DENAALKAEIAALEAKNAALKAEIAALKG [4H1594-AA]	interaction score	1.96
DENAALKAKIAALEAKNAALEAKIAALEG [4H1845-AA]	interaction score	-0.353
DKIAALKAENAALKAEIAALEAEIAALKG [4H2754-AA]	interaction score	0.688
DKIAALEAENAALEAEIAALKAKIAALKG [4H2190-AA]	interaction score	-0.529
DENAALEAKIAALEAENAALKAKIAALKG [4H1310-AA]	interaction score	2.23
DKIAALKAEIAALEAKNAALKAENAALKG [4H2620-AA]	interaction score	-0.861
DKIAALKAENAALEAKIAALKAEIAALEG [4H2729-AA]	interaction score	-0.747
DKIAALKAKNAALEAEIAALEAKIAALEG [4H2949-AA]	interaction score	-0.156
DEIAALEAEIAALKAKNAALKAEIAALKG [4H122-AA]	interaction score	2.36
DENAALEAKNAALKAKIAALKAEIAALEG [4H1513-AA]	interaction score	0.638

(a) DEIAALEAKIAALEAKNAALKAKIAALEG [4H317-AA]
(b) DKNAALEAEIAALEAKNAALKAKIAALEG [4H3133-AA]
(c) DENAALKAKIAALKAEIAALKAENAALEG [4H1867-AA]
(d) DKIAALEAEIAALEAENAALKAKIAALKG [4H2078-AA]
(e) DENAALEAKIAALKAEIAALEAKNAALEG [4H1351-AA]
Ask: // smallest interaction score at index 0, largest at the end Give me the labels in the order the question wants.
Result: e, c, d, b, a
(e: -1.64, c: -1.11, d: -0.297, b: 1.29, a: 2.23)
